- assay details: inhibitors of TNFa-induced NFkB p65 translocation, primary screen, imaging, HUVEC, MLSMR starter and 10KST1 sets (AID 438);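 further: compound added about 3h40 before a 20 min TNFalpha stimulation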
- recorded conditions: HUVEC TNFa-induced p65 nuclear translocation; measured here: nuclei count (cytotoxicity indicator), at 2.08 µM
Outcome: Fulfilled for cell count of at least 400; Not fulfilled for anything lower.

Solved entries (count: 4):
Exercise: Please check the record CCOC(=O)C(C)C1(O)c2ccccc2-c2ncccc21 (stereo unspecified) and state if its cell count is at or above 400.
Key: Not fulfilled

Exercise: Is the recorded value of cell count equal to or greater than 400 for this compound? COc1ccc(OC)c(N2Cc3cc(C)c(C)cc3C2)c1
Key: Fulfilled

Exercise: Dear colleague, could you confirm whether Cc1nc(NC2=NCN(CCc3ccccc3)CN2)nc2c(C)cccc12 has cell count at or above 400?
Key: Fulfilled

Exercise: Hi team, for Nc1scc(-c2ccncc2)c1Cl , is the recorded cell count at or above 400?
Key: Not fulfilled

Next:
Exercise: Is the recorded value of cell count equal to or greater than 400 for this compound? Cc1cc(Nc2ccccc2)n(CCC#N)n1
Key: Not fulfilled

Exercise: Does the compound CCOC(=O)N1CCN(C(=O)CCc2c(C)nc3c(c(C)nn3-c3ccc(C)c(C)c3)c2C)CC1 have recorded cell count that is 400 or more?
Key: Fulfilled

----------
- assay details: TLR3 IRF3 reporter activation blockers – cell-based, poly I:C stimulus, luciferase, 10K MLSCN set, primary screen (AID 602277)
- recorded conditions: HEK293-TLR3 RL24 IRF3 luciferase reporter, at 10 µM, stronger effect = higher value
// label 0 strictly below 10% in inhibition; label 1 otherwise

Exercise: Evaluate C#CC(CO)N(CCN(Cc1ccccc1)C(C#C)CO)Cc1ccccc1 (centres undefined) : inhibition at minimum 10%?
Key: label 1

Exercise: Reported inhibition reaches at least 10% for N#Cc1ccc(CSc2nnc(-c3cnccn3)o2)cc1 ?
Key: label 0

Exercise: Assess whether reported inhibition for Cc1c(C(=O)NCc2ccoc2)oc2ccc3c(c12)C(=O)CC(C)(C)O3 sits at 10% or higher.
Key: label 0

Exercise: State whether the measured inhibition reaches 10%, counting equality as reaching it, for Cc1ccc2[nH]c3c(c2c1)CN(C(=O)CN1CCN(c2cccc(C)c2C)CC1)CC3
Key: label 1

Exercise: Determine whether measured inhibition meets or exceeds 10% for Cc1cnc(C(=O)Nc2ccc(N3CCOCC3)cc2)cn1
Key: label 0

More entries:
Exercise: Confirm if inhibition reported for the molecule O=c1oc2ccccc2n1CCc1ccccc1 is 10% or above.
Key: label 0

Exercise: Check the entry Cc1ccc(-c2cc(C(=O)NCc3ccc4c(c3)OCO4)no2)cc1 : does inhibition equal or exceed 10%?
Key: label 0

Exercise: API: above_or_equal(metric=inhibition, cutoff=10%) for item COCC(C)NC(=O)CCS(=O)(=O)c1nc(-c2ccc(OC)cc2)cc(C(F)(F)F)n1 (centres undefined)
Key: label 0

Exercise: Could you verify whether the entry O=C(CSc1nnnn1C1CCCC1)NCc1ccc2c(c1)OCO2 shows inhibition of no less than 10%?
Key: label 1

----------
- assay details: endothelial E-selectin expression blockers – imaging, HUVEC, immunofluorescence, MLSMR starter and 10KST1 sets, primary screen (AID 487);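 further: 100% = median nuclei count of all wells on the same plate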
- recorded conditions: HUVEC TNFalpha-induced E-selectin immunofluorescence imaging, at 2 µM; measured here: cell number, toxicity
reported endpoint: nuclei count
# do not omit the unit; it follows the number

Exercise: Identify the reported nuclei count for the following entry. O=c1cc(CSc2nnnn2-c2ccccc2)nc2scc(-c3ccccc3)n12
Key: 139%

Exercise: Give nuclei count for Cc1noc(C)c1CSc1nnc(-c2ccncc2)n1-c1cccc(Cl)c1C
Key: 74.2%

Exercise: Tell me its nuclei count given COc1ccc(C)cc1NC(=O)CNC(=O)Cn1ccc2ccccc2c1=O as the entry.
Key: 96.3%

Exercise: Supply nuclei count value. Item: O=S1(=O)CCN2C(=N1)SC1=C2CCN(Cc2ccccc2)C1
Key: 144%

Exercise: Specify nuclei count for COc1ccc(C(=O)CSc2nnc(-c3ccc(C)cc3)o2)cc1 and stop.
Key: 112%

Give me nuclei count for each of these compounds, listed below.
1. COC(=O)/C=c1\sc2ncnn2c1=O
2. CC(C)C(c1nnnn1C1CCCC1)N1CCN(C(=O)c2ccco2)CC1 (stereo unspecified)
3. Cc1nnc(NC(=O)c2ccccc2F)s1
4. O=C(NCC1CCCO1)c1cc(-c2ccncc2)nc2ccc(S(=O)(=O)N3CCOCC3)cc12 (stereo unspecified)
5. CCOC(=O)CS(=O)(=O)c1nc(-c2ccccc2)cc(C(F)(F)F)n1
6. CCN1CCN(c2nc3c(c(=O)n(C)c(=O)n3C)n2CCSc2ncccn2)CC1

Key:
1. 107%
2. 115%
3. 125%
4. 129%
5. 116%
6. 116%
